tested target: α1B Human Adrenergic Receptor (Homo sapiens, UniProt P35368)
Construct: The entire coding region of α1B (1563 bp); expressed in transfected cells
Sequence (P35368 whole entry): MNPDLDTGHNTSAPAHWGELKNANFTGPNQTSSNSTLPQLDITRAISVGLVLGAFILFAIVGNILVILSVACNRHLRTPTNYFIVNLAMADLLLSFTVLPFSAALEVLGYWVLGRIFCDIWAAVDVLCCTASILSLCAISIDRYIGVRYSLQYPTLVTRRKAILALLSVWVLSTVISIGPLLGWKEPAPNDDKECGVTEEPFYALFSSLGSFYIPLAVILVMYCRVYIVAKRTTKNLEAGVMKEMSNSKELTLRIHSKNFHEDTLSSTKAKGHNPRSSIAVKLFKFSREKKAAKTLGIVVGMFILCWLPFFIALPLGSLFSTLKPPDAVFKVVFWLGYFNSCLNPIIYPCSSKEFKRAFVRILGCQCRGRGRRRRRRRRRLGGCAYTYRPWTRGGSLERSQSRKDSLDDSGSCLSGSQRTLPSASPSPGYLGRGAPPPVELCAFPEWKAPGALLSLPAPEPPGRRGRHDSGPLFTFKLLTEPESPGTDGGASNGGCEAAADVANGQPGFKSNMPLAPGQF
run description: Radioligand binding, [3H]prazosin, cloned human α1B adrenergic receptor
condition: cloned human α1B receptor, LM(tk-) cell membranes, read-out: PKi alpha-1 1b (converted)
Listing: Ki of selected molecules
experimental endpoint: Ki (nM)

>>> recorded_value("CCC1=C(C(=O)NN2CCOCC2)C(c2ccc([N+](=O)[O-])cc2)C(C(=O)NCCCN2CCC(c3ccccc3)(c3ccccc3)CC2)=C(COC)N1 (stereo not shown)")
1510
>>> recorded_value("CCOC(=O)C1(c2ccccc2)CCN(CCCNC(=O)C2=C(COCCN)NC(C)=C(C(C)=O)C2c2ccc3c(c2)OCO3)CC1 (stereo not shown)")
513
>>> recorded_value("COC(=O)C1(c2ccccc2)CCN(CCCNC(=O)C2=C(COCCCN)NC(C)=C(C(C)=O)C2c2ccc([N+](=O)[O-])cc2)CC1 (stereo not shown)")
490
>>> recorded_value("CCOC(=O)C1(c2ccccc2)CCN(CCCNC(=O)C2=C(COC)NC(CC)=C(C(=O)O)C2c2ccc([N+](=O)[O-])cc2)CC1 (stereo not shown)")
4470
